# TARGET OR TEST SYSTEM: Nrf2-Keap1 complex (Homo sapiens)
# Sequence (Q14145 whole entry, one chain of several): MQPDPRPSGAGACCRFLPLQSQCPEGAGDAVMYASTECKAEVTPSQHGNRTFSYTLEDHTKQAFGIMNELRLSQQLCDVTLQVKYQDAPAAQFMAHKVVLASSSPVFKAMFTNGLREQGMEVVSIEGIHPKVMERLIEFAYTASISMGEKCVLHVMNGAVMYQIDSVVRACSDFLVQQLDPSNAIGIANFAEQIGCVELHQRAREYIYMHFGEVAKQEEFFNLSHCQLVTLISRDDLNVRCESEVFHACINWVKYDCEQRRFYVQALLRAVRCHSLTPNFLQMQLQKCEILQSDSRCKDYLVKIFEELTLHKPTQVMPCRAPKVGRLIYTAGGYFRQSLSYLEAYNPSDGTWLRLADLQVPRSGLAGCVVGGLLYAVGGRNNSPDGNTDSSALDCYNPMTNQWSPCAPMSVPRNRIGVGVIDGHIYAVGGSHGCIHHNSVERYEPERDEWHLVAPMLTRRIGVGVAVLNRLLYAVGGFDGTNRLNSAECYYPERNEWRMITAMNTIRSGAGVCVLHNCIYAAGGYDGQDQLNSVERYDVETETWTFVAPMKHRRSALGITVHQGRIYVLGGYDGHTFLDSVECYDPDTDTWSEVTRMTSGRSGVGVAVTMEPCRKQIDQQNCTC
# MEASUREMENT PROTOCOL: cell-based
# Type: cell-based
# STUDY CONDITIONS: Table 2; 200 nL compound; screen run at 16 and 32 μM, 3 hr
QUANTITY MEASURED: 200 nL (luminescence)

So the reported 200 nL (luminescence) for CC(=O)O[C@@H]1CC2C(C)(C)C=CC(=O)[C@]2(C)C2CC[C@@]3(C)[C@H](c4ccoc4)OC(=O)C4OC43[C@@]21C (some centres unmarked) , on Nrf2-Keap1 complex (Homo sapiens), turned out to be 3188

The molecule O=c1c(-c2ccccc2)coc2cc(O)cc(O)c12 [5,7-DIHYDROXYISOFLAVONE] on Nrf2-Keap1 complex (Homo sapiens): 200 nL (luminescence) was 1776

The measured 200 nL (luminescence) that `COc1cc(OC)c2c(=O)c(O)c(-c3ccc(OC)c(OC)c3)oc2c1` showed for Nrf2-Keap1 complex (Homo sapiens) is 644

200 nL (luminescence) of ClC1=C(Cl)C2(Cl)C3C(Cl)C(Cl)CC3C1(Cl)C2(Cl)Cl (centres unmarked) , assay on Nrf2-Keap1 complex (Homo sapiens), is 3540

For the molecule CC(=O)[O-].CC(=O)[O-].[Cd+2] [CADMIUMACETATE] , the measured 200 nL (luminescence) on Nrf2-Keap1 complex (Homo sapiens) was 312

GET /values?item= `COc1ccc2ccc(=O)oc2c1CC=C(C)C` &system= Nrf2-Keap1 complex (Homo sapiens) returns 200 nL (luminescence): 1634

// 200 nL (luminescence) (Nrf2-Keap1 complex (Homo sapiens)) for OC[C@H]1O[C@H]([S-])[C@H](O)[C@@H](O)[C@@H]1O.[Au+] [AUROTHIOGLUCOSE, reference compound] = 360

Item: CC(=O)O[C@H]1CC[C@]2(C)C(C[C@@H](OC(C)=O)[C@]3(C)C4=CC(=O)O[C@H](c5ccoc5)[C@@]4(C)CCC23)C1(C)C (stereo partly drawn) [3-DEOXO-3beta-ACETOXYDEOXYDIHYDROGEDUNIN] | System: Nrf2-Keap1 complex (Homo sapiens) | 200 nL (luminescence): 1252

* * *

# TARGET OR TEST SYSTEM: Nrf2-Keap1 complex (Homo sapiens)
# MEASUREMENT PROTOCOL: cell-based
# Assay type: cell-based
# STUDY CONDITIONS: Table 2; 200 nL compound; screen run at 16 and 32 μM, 3 hr
Hi, to clarify the labels: satisfied covers 200 nL (luminescence) from 1000 upward, not satisfied covers anything below 1000.

Q: hey, is 200 nL (luminescence) for this one >= 1000? Oc1cc(O)c2c(c1)O[C@H](c1cc(O)c(O)c(O)c1)[C@H](O)C2 [EPIGALLOCATECHIN]
Result: not satisfied

Q: Check if 200 nL (luminescence) >= 1000 (inclusive). Item: CC(=O)O[C@@H]1CC2C(C)(C)[C@H](O)C=C[C@]2(C)C2CC[C@]3(C)C(=CC(=O)O[C@H]3c3ccoc3)[C@@]21C (stereo partly drawn) [3-alpha-HYDROXYDEOXYGEDININ]
Result: satisfied

Q: Check the entry `CCc1cccc(CC)c1N(COC)C(=O)CCl` : does 200 nL (luminescence) equal or exceed 1000?
Result: satisfied

Q: Could you verify whether the entry CO/N=C(\C(=O)N[C@@H]1C(=O)N2C(C(=O)O)=C(COC(C)=O)CS[C@H]12)c1csc(N)n1 [CEFOTAXIMESODIUM, reference compound] shows 200 nL (luminescence) of no less than 1000?
Result: not satisfied

Q: Check the entry C=C[C@@](C)(O)CCC1C(=C)CCC2[C@@](C)(CO)CCC[C@]12C (stereo partly drawn) [EPI(13)TORULOSOL] : does 200 nL (luminescence) equal or exceed 1000?
Result: not satisfied

Q: Decide: is the reported value of 200 nL (luminescence) for CNC(=O)CSP(=S)(OC)OC [DIMETHOATE] equal to or greater than 1000?
Result: satisfied

Q: Reported 200 nL (luminescence) at or above 1000? COc1c(C)c2c(c(O)c1C/C=C(\C)CCC(=O)O)C(=O)OC2 [MYCOPHENOLICACID, reference compound]
Result: satisfied

Q: Does `COc1ccc(C(=O)c2ccccc2)c(O)c1O` have a reported 200 nL (luminescence) of at least 1000?
Result: satisfied

Q: Does the reported 200 nL (luminescence) for COc1cc(C)c2c(c1C=O)Oc1c(c(C)c(O)c3c1C(O)OC3=O)OC2=O (stereo not drawn) [[…]] fall at or above the 1000 mark?
Result: satisfied

Q: API: above_or_equal(metric=200 nL (luminescence), cutoff=1000) for item `COC1=CC(=O)C(C(=O)c2ccccc2)=CC1=O`
Result: satisfied

Q: Please tell me: is the compound C=C[C@@]1(C)CC(=O)[C@]2(O)[C@@]3(C)[C@@H](O)CCC(C)(C)[C@@H]3[C@H](O)[C@H](OC(C)=O)[C@@]2(C)O1 [COLFORSIN, reference compound] at or over 1000 in terms of 200 nL (luminescence)?
Result: satisfied

Q: Assess whether reported 200 nL (luminescence) for `O=c1cc(-c2cc(O)c(O)c(O)c2)oc2cc(O)cc(O)c12` sits at 1000 or higher.
Result: satisfied

Q: 200 nL (luminescence) >= 1000 for COc1ccc(/C=C/C(=O)c2ccc(O)cc2O)cc1 [2′,4′-DIHYDROXY-4-METHOXYCHALCONE] ?
Result: satisfied

Q: Answer whether 200 nL (luminescence) of `COc1cc(O)c(C(=O)/C=C/c2ccc(OC)c(O)c2)c(OC)c1` is greater than or equal to 1000.
Result: not satisfied

Q: Is 200 nL (luminescence) for `COC(=O)NC(=S)Nc1ccccc1NC(=S)NC(=O)OC` at or above 1000?
Result: not satisfied

Q: Does the compound `CC(C)c1cccc(=O)c(O)c1` have recorded 200 nL (luminescence) that is 1000 or more?
Result: not satisfied

Q: Could you please find out whether `O=c1c(O)c(-c2ccc(O)c(O)c2)oc2cc(O)ccc12` has 200 nL (luminescence) that meets 1000 or exceeds it?
Result: satisfied

Q: Quick check, 200 nL (luminescence) >= 1000? COc1cc([C@@H]2c3cc4c(cc3[C@@H](O[C@@H]3O[C@@H]5CO[C@@H](C)O[C@H]5[C@H](O)[C@H]3O)[C@H]3COC(=O)[C@H]23)OCO4)cc(OC)c1O [ETOPOSIDE, reference compound]
Result: satisfied

Q: Please indicate if the recorded 200 nL (luminescence) for `CC1(C)C(=O)C=C[C@]2(C)[C@H]3CC[C@@]4(C)[C@H](c5ccoc5)OC(=O)[C@H]5O[C@]54[C@]3(C)[C@H](O)C[C@@H]12` meets or exceeds 1000.
Result: not satisfied

Q: Does 200 nL (luminescence) meet or surpass 1000 for `CSc1nc(NC(C)C)nc(NC(C)C)n1` ?
Result: not satisfied

Q: Determine whether measured 200 nL (luminescence) meets or exceeds 1000 for `COc1ccc2c(c1)OC/C(=C\c1ccc(OC)c(O)c1)C2=O`
Result: satisfied

Q: Is 200 nL (luminescence) at least 1000? Consider CC(=O)OC1CC[C@@]2(C)C(CC[C@H]3[C@@H]4CC=C(C(C)=O)[C@@]4(C)C(=O)C[C@@H]32)C1 (stereo partly drawn)
Result: satisfied

Q: State whether the measured 200 nL (luminescence) reaches 1000, counting equality as reaching it, for CC1(C)C(C(Cl)Cl)C2(Cl)C(Cl)C(Cl)C1(Cl)C2(Cl)Cl (stereo not drawn)
Result: satisfied

Q: In plain terms: is recorded 200 nL (luminescence) at least 1000 for `COc1ccc(-c2oc3cc(O[C@@H]4O[C@H](CO)[C@@H](O)[C@H](O)[C@H]4O)c(OC)c(O)c3c(=O)c2OC)cc1O` ?
Result: not satisfied

Q: Decide: 200 nL (luminescence) of CC1(C)[N+]([O-])=[N+]([O-])C1(C)Br (stereo not drawn) >= 1000?
Result: satisfied

Q: 200 nL (luminescence) >= 1000 for O=CC=Cc1ccc(O)cc1 [p-HYDROXYCINNAMALDEHYDE] ?
Result: satisfied

Q: Check the entry `CCOCN(C(=O)CCl)c1c(C)cccc1CC` : does 200 nL (luminescence) equal or exceed 1000?
Result: satisfied

Q: Form field: 200 nL (luminescence) at least 1000? Entry: O=C1CC(c2ccc(O)cc2)Oc2ccccc21 (stereo not drawn) [4′-HYDROXYFLAVANONE]
Result: satisfied

Q: Decide: is the reported value of 200 nL (luminescence) for `COc1cc(C/C=C/c2ccccc2)c(OC)cc1O` equal to or greater than 1000?
Result: satisfied

Q: Please indicate if the recorded 200 nL (luminescence) for `C[C@]12C=CC(=O)C=C1CC[C@@H]1[C@@H]2CC[C@]2(C)C(=O)CC[C@@H]12` meets or exceeds 1000.
Result: satisfied

Q: In plain terms: is recorded 200 nL (luminescence) at least 1000 for CCC(C)C(=O)OC1[C@@H]2CC3=C4CC(=O)O[C@@H](c5ccoc5)[C@]4(C)CCC3[C@@](C)(C2=O)[C@@H](CC(=O)OC)C1(C)C (stereo partly drawn) ?
Result: satisfied

Q: Say whether CC1=C(/C=C/C(C)=C/C=C/C(C)=C\C(=O)O)C(C)(C)CCC1 [ISOTRETINON, reference compound] shows 200 nL (luminescence) of 1000 or more.
Result: satisfied

Q: Has O=C(/C=C/c1ccccc1)c1ccc(O)cc1O [2′,4′-DIHYDROXYCHALCONE] a recorded 200 nL (luminescence) greater than or equal to 1000?
Result: satisfied
